- study.system: Neuraminidase (Influenza A virus, UniProt B4URF0)
- Sequence (B4URF0 whole entry): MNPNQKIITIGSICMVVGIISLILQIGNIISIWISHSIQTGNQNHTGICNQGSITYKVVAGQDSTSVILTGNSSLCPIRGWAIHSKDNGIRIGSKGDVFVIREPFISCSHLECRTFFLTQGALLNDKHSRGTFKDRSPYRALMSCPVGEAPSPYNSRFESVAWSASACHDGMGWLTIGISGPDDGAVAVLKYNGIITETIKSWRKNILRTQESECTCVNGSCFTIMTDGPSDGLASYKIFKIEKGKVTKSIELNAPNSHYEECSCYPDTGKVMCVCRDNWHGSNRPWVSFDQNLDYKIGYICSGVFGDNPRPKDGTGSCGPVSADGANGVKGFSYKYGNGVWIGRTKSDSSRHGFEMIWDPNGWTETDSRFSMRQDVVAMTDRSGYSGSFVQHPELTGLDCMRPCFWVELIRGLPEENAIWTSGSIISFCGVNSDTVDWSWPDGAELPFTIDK
observable: pIC50
For clarity, pIC50 is expressed as the negative log10 of concentration in mol/L.

Recorded pIC50 of CCC(CC)[C@H](NC(C)=O)[C@@H]1[C@H](O)[C@@H](C(=O)O)C[C@H]1NC(=N)N [PERAMIVIR ANHYDROUS] , please. 10.00
